The reported measurements were obtained from paper PMC5261807.

Target: T1, Bdf1 bromodomain 2 (GST-tagged, WT) (Saccharomyces cerevisiae (strain ATCC …, UniProt P35817))
T1 chain: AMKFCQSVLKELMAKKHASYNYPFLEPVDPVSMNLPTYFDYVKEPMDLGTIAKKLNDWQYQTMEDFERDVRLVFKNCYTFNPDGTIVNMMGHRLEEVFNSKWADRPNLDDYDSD
Assay: histone peptide array probed with recombinant GST-bromodomain, signal normalised to myc peptide control
Non-standard residues stand in square brackets, D forms with d. No end group written: not given here. Arg(Me2a) = CN(C)C(=N)NCCC[C@H](N)C(=O)O; Lys(Me3) = C[N+](C)(C)CCCC[C@H](N)C(=O)O; Arg(Me2s) = CN=C(NC)NCCC[C@H](N)C(=O)O; pT = C[C@@H](OP(=O)(O)O)[C@H](N)C(=O)O; Lys(Me2) = CN(C)CCCC[C@H](N)C(=O)O; pS = N[C@@H](COP(=O)(O)O)C(=O)O; Lys(Me) = CNCCCC[C@H](N)C(=O)O
READOUT_LABEL: binding score
Lab note: record the figure alone, no unit after it.

{"columns": ["BINDER", "READOUT_LABEL", "OBS_VALUE"],
 "data": [
  ["ARTKQTARKSTGGKAPRKQ (A R T Kac Q T A Rme2a Kac S T G G K A P R K Q)", "binding score", 0.0821]
]}

Tell me its binding score given EQKLISEEDLA (histone peptides carry modifications given inline in the sequence and in columns 4-7 (Kac, Kme1/2/3, Rme2a/s, Cit, pS/pT); N-terminus free or acetylated) [c-myc tag] as the entry.
1

Give recorded binding score. "SGRGK(Ac)QGGK(Ac)ARAKAKSRSS"
0.141

Note binding score for the binder shown: RKSAPATGGVKKPHRYRPG (R K S A P A T G G V Kac K P H R Y R P G) [H3 26-45]
0.0292

For the binder PRKQLATKAARKSAPATGG (histone peptides carry modifications given inline in the sequence and in columns 4-7 (Kac, Kme1/2/3, Rme2a/s, Cit, pS/pT); N-terminus free or acetylated) , report binding score.
0

Complete the entry with binding score for ARTKQTARKSTGGKAPRKQ (A Rme2a T Kme2 Q T A Rme2s Kac S T G G K A P R K Q)
0.0274

Give me measured binding score, please, for this binder: RRKKKRRKKKRKRKKRK (R Rme2s K Kme1 Kac R Rme2a Kme2 K Kme3 R Kme1 Rme2s K Kac R K) [background 02]
0.006

In one line, give reported binding score of the entry "A[Arg(Me2s)]T[Lys(Me3)]QTAR[Lys(Me)]STGGKAPRKQ" .
0.00895

Tell us which binding score value is on record for "ARTKQTA[Arg(Me2a)]K[pS]TGGKAPRKQ"
0

State its binding score for this binder: "ARTKQTA[Arg(Me2s)][Lys(Me)][pS]TGGKAPRKQ"
0

Return binding score for the following binder: "A[Arg(Me2a)]TK(Ac)QTA[Arg(Me2a)][Lys(Me)]STGGKAPRKQ"
0

Fill in binding score for record "A[Arg(Me2a)]TK(Me)QTARKSTGGKAPRKQ"
0

Quickly give me recorded binding score for ARTKQTARKSTGGKAPRKQ (A Rme2s T Kme2 Q T A Rme2a Kme2 S T G G K A P R K Q)
0

Item ARTKQTARKSTGGKAPRKQ (A Rme2s pT Kme2 Q T A R K S T G G K A P R K Q) : provide binding score
0

Quote binding score reported for "A[Arg(Me2a)][pT]K(Ac)QTARKSTGGKAPRKQ" please.
0.0394

Give the reported binding score for this binder. "PRKQLATKAA[Arg(Me2s)][Lys(Me2)]SAPATGG"
0

Return binding score for the following binder: ARTKQTARKSTGGKAPRKQ (A Rme2a T Kme1 Q T A Rme2s Kac S T G G K A P R K Q)
0.0204

Provide one value: measured binding score of ARTKQTARKSTGGKAPRKQ (A Rme2a T Kme1 Q T A Rme2a Kme3 S T G G K A P R K Q)
0.00285

Note down binding score recorded for SGRGKGGKGLGKGGAKRHR (S G Rme2a G Kac G G Kac G L G Kac G G A K R H R)
0.386

Given the binder ARTKQTARKSTGGKAPRKQ (A R T Kme2 Q T A Rme2s Kme1 S T G G K A P R K Q) , write its reported binding score.
0

Give a short answer stating reported binding score for SGRGKGGKGLGKGGAKRHR (S G R G Kac G G Kac G L G K G G A K R H R) .
0.33

For the binder "[pS]GRGK(Ac)QGGKARAKAKSRSS" , give its reported binding score.
0.0135
